Experiment: Solubility data of acadesine in injectable solution
Format: physicochemical
Conditions: 5° C.; injectable solution pH 7.2-8.0; read-out: solubility data supports
reportedProperty: solubility (mg/mL)
# number only, unit mg/mL dropped from output

Briefly, solubility measured for NC(=O)c1ncn([C@@H]2O[C@H](CO)[C@@H](O)[C@H]2O)c1N [Acadesine] : 18

----------
Experiment: Solubility data of acadesine in injectable solution
Format: physicochemical
Conditions: Room temperature; injectable solution pH 8.8-9.6; read-out: solubility data supports
reportedProperty: solubility

The recorded solubility for NC(=O)c1ncn([C@@H]2O[C@H](CO)[C@@H](O)[C@H]2O)c1N is 60 mg/mL

----------
Assay: Solubility data of acadesine in injectable solution
Assay type: physicochemical
Conditions: 5° C.; injectable solution pH 6.0-8.0 (with antioxidant); read-out: solubility data supports
reportedProperty: solubility (mg/mL)
Please respond with the number in mg/mL and leave the unit unwritten.

Quick note, solubility for NC(=O)c1ncn([C@@H]2O[C@H](CO)[C@@H](O)[C@H]2O)c1N [Acadesine] landed at 18

----------
Assay: Solubility data of acadesine in injectable solution
Format: physicochemical
Details: 5 °C; injectable solution pH 8.8-9.6; read-out: solubility data supports
reportedProperty: solubility

In plain terms, NC(=O)c1ncn([C@@H]2O[C@H](CO)[C@@H](O)[C@H]2O)c1N [Acadesine] has a documented solubility of 18 mg/mL

Numbers sourced from patent US20120258926A1.
